The measured values listed here are drawn from patent US8742106B2.

target: human orexin 1 receptors (Homo sapiens (Human), UniProt O43613); assay: Calcium Accumulation in Cells (FLIPR), antagonism of orexin A; conditions: antagonism of orexin A, Cheng-Prusoff corrected; read-out: FLIPR hOx1R Ki
Sequence (O43613 whole entry): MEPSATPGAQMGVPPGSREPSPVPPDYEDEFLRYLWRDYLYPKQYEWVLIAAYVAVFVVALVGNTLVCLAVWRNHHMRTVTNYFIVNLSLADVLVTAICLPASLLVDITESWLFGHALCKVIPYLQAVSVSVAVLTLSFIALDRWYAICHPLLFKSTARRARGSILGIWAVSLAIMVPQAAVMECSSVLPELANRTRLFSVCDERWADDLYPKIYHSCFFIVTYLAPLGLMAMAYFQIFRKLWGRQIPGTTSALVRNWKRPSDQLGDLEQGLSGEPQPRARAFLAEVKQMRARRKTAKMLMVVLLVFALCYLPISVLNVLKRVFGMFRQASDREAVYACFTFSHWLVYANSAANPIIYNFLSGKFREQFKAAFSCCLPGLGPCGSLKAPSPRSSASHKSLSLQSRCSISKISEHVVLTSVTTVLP
OBSERVATION TYPE: Ki (nM)
Express it in nM; write the number only.

Challenge: Name the recorded Ki for Cc1nn(C)c(C)c1C(C)NC(=O)COc1cc(C(F)F)c2c(C3CC3)nn(C)c2n1 (stereo not drawn) [Example 6.9] .
Response given: 778

Challenge: Query Cc1cc(OCC(=O)NC(C)c2ccc3c(c2)ncn3C)nc2c1c(C1CC1)nn2C (stereo not drawn) [Example 6.58] next
Response given: 1010

Challenge: Query C[C@H](NC(=O)COc1cc(C(F)(F)F)c2c(-c3cccnc3)nn(C)c2n1)c1ccccc1 [Example 1.34] next
Response given: 869

* * *

target: human orexin 1 receptors (Homo sapiens (Human)); test: Calcium Accumulation in Cells (FLIPR), antagonism of orexin A; conditions: antagonism of orexin A, Cheng-Prusoff corrected; read-out: FLIPR hOx1R Ki
Just a reminder that ties go to class 0: only Ki strictly below 50 nM counts as class 1.

Challenge: Please state whether Ki is below 50 nM for Cn1nc(-c2ccccc2F)c2c(C(F)(F)F)cc(OCC(=O)N[C@H]3CCc4ccccc43)nc21 [Example 1.60]
Response given: class 0

Challenge: Query COc1ccc([C@@H](C)NC(=O)COc2cc(C(F)(F)F)c3c(-c4ccccc4)nn(C)c3n2)cc1 [Example 1.59] next
Response given: class 0

Challenge: Query Cc1ccc([C@H](C)NC(=O)COc2cc(C(F)F)c3c(C4CC4)nn(C)c3n2)cc1 [Example 6.8] next
Response given: class 1

Challenge: Query C[C@H](NC(=O)COc1cc(C(F)(F)F)c2c(C(C)(C)C)nn(C)c2n1)c1ccccc1 [Example 1.37] next
Response given: class 0

Challenge: Query Cc1ccc([C@H](C)NC(=O)COc2cc(C)c3c(-c4ncccn4)nn(C)c3n2)cc1 [Example 4.7] next
Response given: class 1

Challenge: Query COc1ccc2c(c1)CC[C@@H]2NC(=O)COc1cc(C)c2c(C3CC3)nn(C)c2n1 [Example 6.5] next
Response given: class 0

Challenge: Query Cn1nc(-c2ccccc2)c2c(C(F)(F)F)cc(OCC(=O)NCc3ccccc3)nc21 [Example 1.12] next
Response given: class 0

Challenge: Query Cc1nn(C)c(C)c1C(C)NC(=O)COc1cc(C(F)(F)F)c2c(-c3ccccc3)nn(C)c2n1 (stereo not shown) [Example 1.70] next
Response given: class 1

Challenge: Query Cc1cc(OCC(=O)NC(C)c2cnc3c(ccn3C)c2)nc2c1c(C1CC1)nn2C (stereo not shown) [Example 8.1] next
Response given: class 0

Challenge: Query CC(NC(=O)COc1cc(C(F)(F)F)c2c(-c3ccccc3)nn(C)c2n1)c1ccccc1 (stereo not shown) [Example 1.18] next
Response given: class 1

Challenge: Query COc1ccc([C@H](C)NC(=O)COc2cc(C(F)(F)F)c3c(-c4ccccc4)nn(C)c3n2)cc1 [Example 1.4] next
Response given: class 1

Challenge: Query C[C@H](NC(=O)COc1cc(C(F)(F)F)c2c(-c3cccc(Br)c3)nn(C)c2n1)c1ccccc1 [Example 1.58] next
Response given: class 0

Challenge: Query Cc1cc(OCC(=O)NC(C)c2ccc3[nH]ccc3c2)nc2c1c(C1CC1)nn2C (stereo not shown) [Example 7.17] next
Response given: class 0
